B1: POU domain, class 2, transcription factor 2, residues 200 to 269; numbered along this chain, P09086 (parent)
chain: LEELEQFARTFKQRRIKLGFTQGDVGLAMGKLYGNDFSQTTISRFEALNLSFKNMCKLKPLLEKWLNDAE

# Variants of: B1
# Assay Info: abundance fitness (aPCA) (normalised: wild type 0, dead -1); higher = more abundant; growth selection in yeast, the domain comes from the species named
# Experimental Parameters: Homo sapiens
Lab note: compare abundance fitness against -0.1. Equal or greater, write Yes. Smaller, write No.

Reference set, count: 5
# Mutant Designation, Class Label
rows = [
    ("G34M", "No"),
    ("G26P", "No"),
    ("D68Q", "Yes"),
    ("N35P", "Yes"),
    ("K31P", "No"),
]

IN: I'd appreciate it if you could say whether `L48V` has abundance fitness at least equal to -0.1.
OUT: Yes

IN: Quick check: does `Y33D` have abundance fitness greater than or equal to -0.1?
OUT: Yes

IN: Could you verify whether the entry `N54Y` shows abundance fitness of no less than -0.1?
OUT: Yes
